As shown below, each of these binders has a reported Baf3-cyPRLR proliferation IC50 value.
# SYSTEM: cyno PRLR on Baf3-cyPRLR cells (cyno)
# EXPERIMENTAL_PROTOCOL: cell-based or functional assay
Answer with a number only, understood to be in µg/mL.

Check out these entries, answers already filled in.
BINDER	PROPERTY_MEASURED	OUTPUT_UNIT	RECORDED_NUMBER
Ab15 (antibody, human IgG1, kappa, V domains shown, humanized from Ab6; G1; also called Ab1 HC.1 and Ab1 LC.1a) VH: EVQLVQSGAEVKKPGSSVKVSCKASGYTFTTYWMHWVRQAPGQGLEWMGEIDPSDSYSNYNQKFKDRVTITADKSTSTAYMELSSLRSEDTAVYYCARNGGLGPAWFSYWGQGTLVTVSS VL: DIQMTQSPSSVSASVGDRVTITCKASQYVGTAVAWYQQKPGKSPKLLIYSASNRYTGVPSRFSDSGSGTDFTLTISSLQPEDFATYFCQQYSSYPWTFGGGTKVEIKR	Baf3-cyPRLR proliferation IC50	µg/mL	0.19
Ab50 (antibody, human IgG1, kappa, V domains shown, humanized from Ab8; G1; also called Ab3 HC.1b and Ab3 LC.1) VH: EVQLVQSGAEVKKPGASVKVSCKASGYTFTDYNIHWVRQAPGQGLEWIGYIYPNNDGTGYAQKLQGRVTMTVDTSTSTAYMELRSLRSDDTAVYYCARGDGNYVGDMDYWGQGTTVTVSS VL: DIQMTQSPSSLSASVGDRVTITCRASENIYSYLAWYQQKPGKAPKLLIYNAKTLAEGVPSRFSGSGSGTDFTLTISSLQPEDFATYYCQHHYATPFTFGQGTKLEIKR	Baf3-cyPRLR proliferation IC50	µg/mL	41.6
Ab36 (antibody, human IgG1, kappa, V domains shown, humanized from Ab7; G1; also called Ab4 HC.1 and Ab4 LC.1a) VH: EVQLVQSGAEVKKPGSSVKVSCKASGYTFTSYWIHWVRQAPGQGLEWMGEIDPSDSYTNYNQKFKGRVTITADKSTSTAYMELSSLRSEDTAVYYCARSFFTNWFAYWGQGTLVTVSS VL: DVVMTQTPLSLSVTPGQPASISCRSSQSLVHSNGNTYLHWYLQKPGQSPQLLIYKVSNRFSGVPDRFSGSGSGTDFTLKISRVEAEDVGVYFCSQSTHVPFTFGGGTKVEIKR	Baf3-cyPRLR proliferation IC50	µg/mL	0.41
Ab27 (antibody, human IgG1, kappa, V domains shown, humanized from Ab5; G1; also called Ab2 HC.1 and Ab2 LC.1a) VH: EVQLVQSGAEVKKPGSSVKVSCKASGYTFTSFWMHWVRQAPGQGLEWMGVIDPSDTYTNYNQKFKGRVTITADESTSTAYMELSSLRSEDTAVYYCARGDYSNWFTYWGQGTLVTVSS VL: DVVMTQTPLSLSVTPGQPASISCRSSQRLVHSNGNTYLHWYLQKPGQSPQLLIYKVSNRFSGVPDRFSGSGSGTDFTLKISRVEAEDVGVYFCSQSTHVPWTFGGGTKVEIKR	Baf3-cyPRLR proliferation IC50	µg/mL	0.22

Moving on to another binder below.
// Baf3-cyPRLR proliferation IC50 lookup, key: Ab21 (antibody, human IgG1, kappa, V domains shown, humanized from Ab6; G1; also called Ab1 HC.1a and Ab1 LC.2a) VH: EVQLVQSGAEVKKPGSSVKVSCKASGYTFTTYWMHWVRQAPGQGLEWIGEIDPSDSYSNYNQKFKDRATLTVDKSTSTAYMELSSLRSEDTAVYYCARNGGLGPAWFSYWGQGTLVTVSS VL: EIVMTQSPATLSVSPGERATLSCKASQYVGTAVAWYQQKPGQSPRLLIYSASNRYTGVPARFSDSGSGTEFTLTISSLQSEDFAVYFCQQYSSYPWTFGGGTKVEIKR
0.15
